System: Bacillus subtilis PCI 219
TEST_SUMMARY: MIC, in vitro antibacterial activity (standard strains)
Assay type: cell-based
PARTICULARS: Bacillus subtilis, PCI219; 10^6 cells/ml; Gram +; read-out: MIC
OBSERVED_PROPERTY: MIC (µg/mL)
Give bare numbers, in µg/mL.

Completed entries (count: 5):
>  <COMPOUND>
C[C@H]1CN(c2c(F)cc3c(=O)c(C(=O)O)cn4c3c2OC[C@@H]4C)C[C@H]1N.Cl (mixture of isomers)

>  <MEASUREMENT_TARGET>
Bacillus subtilis PCI 219

>  <MIC / µg/mL>
0.05

$$$$
>  <COMPOUND>
CNCC1CN(c2c(F)cc3c(=O)c(C(=O)O)cn(C4CC4)c3c2F)CC1C (stereo not shown)

>  <MEASUREMENT_TARGET>
Bacillus subtilis PCI 219

>  <MIC / µg/mL>
0.025

$$$$
>  <COMPOUND>
CCNCC1CN(c2c(F)cc3c(=O)c(C(=O)O)cn(C4CC4)c3c2Cl)CC1C (stereo not shown)

>  <MEASUREMENT_TARGET>
Bacillus subtilis PCI 219

>  <MIC / µg/mL>
0.0125

$$$$
>  <COMPOUND>
C[C@H]1CN(c2c(F)cc3c(=O)c(C(=O)O)cn(C4CC4)c3c2Br)C[C@H]1N (relative stereo)

>  <MEASUREMENT_TARGET>
Bacillus subtilis PCI 219

>  <MIC / µg/mL>
0.0125

$$$$
>  <COMPOUND>
C[C@H]1CN(c2cc3c(cc2F)c(=O)c(C(=O)O)cn3C2CC2)C[C@H]1N (relative stereo)

>  <MEASUREMENT_TARGET>
Bacillus subtilis PCI 219

>  <MIC / µg/mL>
0.05

$$$$

For each listed entry, give its MIC.
1. CC1CN(c2c(F)cc3c(=O)c(C(=O)O)cn(C4CC4)c3c2Cl)CC1CN (stereo not shown)
2. C[C@H]1CN(c2c(F)cc3c(=O)c(C(=O)O)cn(CCF)c3c2Cl)C[C@H]1N (relative stereo)

## Result
1: 0.0125; 2: 0.1
